Measured values drawn from paper PMC11589570 for this set.

Each record here notes measured CSP.
target: GABARAPL2 (Homo sapiens, UniProt P60520); details: residue F104; GABARAPL2:ligand molar ratio 1:2
Sequence (P60520 whole entry): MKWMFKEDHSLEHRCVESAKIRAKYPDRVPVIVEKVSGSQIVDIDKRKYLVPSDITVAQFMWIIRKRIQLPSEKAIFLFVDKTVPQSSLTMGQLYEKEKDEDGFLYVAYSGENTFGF
Kindly provide the numeric value in ppm only, without the unit symbol.

Examples with their reported CSP follow.
- O=C1Nc2ccc(I)cc2C1=Cc1cc(Br)c(O)c(Br)c1 [compound 4]: 0.059
- O=C1Nc2ccc(Br)cc2C1=Cc1cc(O)c(O)c(Br)c1 [compound 1]: 0.019
- Cc1ccc(C(=O)N(CCCN)[C@@H](c2nc3cc(Cl)ccc3c(=O)n2Cc2ccccc2)C(C)C)cc1 [compound 3]: 0.0075

Return CSP for the following compound: O=c1cc(-c2ccccc2)c2c(O)cc(O)cc2o1 [compound 2]
0.016

* * *

Assay: Cell viability measurements
Format: cell-based
Conditions: log concentration [M] -6.90309; two replicate columns
Source text: 1 Source data for Supplementary Fig. 8a-f are provided as a Source Data file.
PROPERTY: viability at 0.125 µM (%)
Number only, in %; omit the unit.

* Cc1ccc(C(=O)N(CCCN)[C@@H](c2nc3cc(Cl)ccc3c(=O)n2Cc2ccccc2)C(C)C)cc1 [compound 3] | 105

Return value of viability at 0.125 µM for input O=C1Nc2ccc(I)cc2C1=Cc1cc(Br)c(O)c(Br)c1 [compound 4] , no commentary.
101

* * *

biological target: GABARAPL2 (Homo sapiens, UniProt P60520); settings: residue E12; GABARAPL2:ligand molar ratio 1:2
// values below are reported CSP
API: value field is a number in ppm; no unit string.

* O=C1Nc2ccc(Br)cc2C1=Cc1cc(O)c(O)c(Br)c1 | 0.006

Give the value of CSP reported for the following: "O=c1cc(-c2ccccc2)c2c(O)cc(O)cc2o1"
0.00212

Answer with reported CSP of "Cc1ccc(C(=O)N(CCCN)[C@@H](c2nc3cc(Cl)ccc3c(=O)n2Cc2ccccc2)C(C)C)cc1"
0.00142

Give recorded CSP. "O=C1Nc2ccc(I)cc2C1=Cc1cc(Br)c(O)c(Br)c1"
0.015

* * *

CSP for assorted molecules
target: UniProt P60520; details: residue D102; GABARAPL2:ligand molar ratio 1:2

Consider the following illustrative entries.
* O=C1Nc2ccc(Br)cc2C1=Cc1cc(O)c(O)c(Br)c1 | 0.015 ppm
* O=C1Nc2ccc(I)cc2C1=Cc1cc(Br)c(O)c(Br)c1 | 0.033 ppm
* Cc1ccc(C(=O)N(CCCN)[C@@H](c2nc3cc(Cl)ccc3c(=O)n2Cc2ccccc2)C(C)C)cc1 | 0.00165 ppm

# ---- query molecule ----
Jot down CSP (UniProt P60520) of "O=c1cc(-c2ccccc2)c2c(O)cc(O)cc2o1" .
0.009 ppm

* * *

Reported CSP values follow for various compounds
molecular target: GABARAPL2 (Homo sapiens, UniProt P60520); conditions: residue M61; GABARAPL2:ligand molar ratio 1:2
Number in ppm, nothing else.

- O=C1Nc2ccc(Br)cc2C1=Cc1cc(O)c(O)c(Br)c1: 0.00531
- O=c1cc(-c2ccccc2)c2c(O)cc(O)cc2o1: 0.00474
- O=C1Nc2ccc(I)cc2C1=Cc1cc(Br)c(O)c(Br)c1: 0.015

Let's switch to this compound now.
Return CSP for the following compound: "Cc1ccc(C(=O)N(CCCN)[C@@H](c2nc3cc(Cl)ccc3c(=O)n2Cc2ccccc2)C(C)C)cc1"
0.00221
